system_tested: T1, Peptide 8: Biotin-AEAAAKEAAAKEAAAKEAAAKAAA-Tyr-acid (N-terminal biotin; C-terminal acid; no PC)
T1 construct: control peptide without PC
T1 peptide: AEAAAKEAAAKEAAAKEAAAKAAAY
experiment_description: scFv ELISA
Procedure: For ELISA analysis of scFv binding, 96-well polystyrene plates were coated with Peptide 1, 4, 5, 8 or 100 μL BSA (10 μg/mL) in PBS at 4° C. overnight. […] All plates were washed three times with PBS-Tween before 40 μL aliquots of PPE were added to assay plates along with 50 μL 10% BSA, and plates were incubated for 1 hour at room temperature. […] The amount of scFv bound to each well was quantitated from absorbance measurement at 450 nm (OD450).
observed_property: OD450 (OD450)
Dear colleague, please return just the value in OD450, with no unit written.

Task item: What value of OD450 has been recorded for this entry: PcOxP_DB04_H07 (scFv, V domains shown, scFv in periplasmic extract) VH: EVQLLESGGGLVQPGGSLRLSCAASGFTFEDFYMEWVRQAPGKGLEWVAASRNKANDYTTEYADSVKGRFTISRDNSKNTLYLQMNSLRAEDTAVYYCARDYYGSSYWYFDVWGQGTLVTVSS VL: DIQMTQSPSSLSASVGDRVTITCTASESLYSSKHKVHYLAWYQQKPGKAPKLLIYGASNRVIGVPSRFSGSGSGTDFTLTISSLQPEDFATYYCAQFYSYPLTFGGGTKVEIK
Reply: 0.05

Task item: Please give the measured OD450 for this binder: PcOxP_DB01_B02 (scFv, V domains shown, scFv in periplasmic extract) VH: EVQLLESGGGLVQPGGSLRLSCAASGGTFSDFYMEWVRQAPGKGLEWVAASRNKANSYTTAYADSVKGRFTISRDNSKNTLYLQMNSLRAEDTAVYYCARDYYGSSYWYFDVWGQGTLVTVSS VL: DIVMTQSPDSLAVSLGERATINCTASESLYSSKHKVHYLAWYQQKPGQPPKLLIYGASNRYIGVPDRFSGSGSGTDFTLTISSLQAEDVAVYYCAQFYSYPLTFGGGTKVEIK
Reply: 0.05

This collection of values is drawn from patent US20250320312A1.
